The measured values listed here are drawn from ChEMBL document CHEMBL4513216.

- Tested on: Plasmodium berghei
- assay protocol: Screen against P. berghei liver stage (PbLuc), transformed with Luciferase, at 2uM
- Type: functional, HepG2
- measurement parameters: tested at 2 uM
Among all 68,000 compounds or so, about 2,700 (4%) showed an effect of 50% or more. Shown is part of a subset that was picked to be rich in strong results.
Returns one of Criterion met or Criterion not met; Criterion met when INHIBITION is >= 30%.

In plain terms: is recorded INHIBITION at least 30% for COCCSCC(=O)NCc1ccc(N(C)C)nc1 ?
Criterion not met

Please tell me: is the compound Cc1nc(CN2CCCC2Cn2cncn2)no1 (stereo not given) at or over 30% in terms of INHIBITION?
Criterion not met

# bool: INHIBITION of CCc1nc(CN2CCCC(NCCn3cncn3)C2)no1 (stereo not given) >= 30%
Criterion met

Dear colleague, could you confirm whether CCOC(=O)CC(C)Nc1nc(C2CCCC2)nc2c1cnn2C (stereo not given) has INHIBITION at or above 30%?
Criterion met
